Value source: patent US7057052B2

assay_system: Cdc25B (Homo sapiens, UniProt P30305)
Sequence (P30305 whole entry, species assumed): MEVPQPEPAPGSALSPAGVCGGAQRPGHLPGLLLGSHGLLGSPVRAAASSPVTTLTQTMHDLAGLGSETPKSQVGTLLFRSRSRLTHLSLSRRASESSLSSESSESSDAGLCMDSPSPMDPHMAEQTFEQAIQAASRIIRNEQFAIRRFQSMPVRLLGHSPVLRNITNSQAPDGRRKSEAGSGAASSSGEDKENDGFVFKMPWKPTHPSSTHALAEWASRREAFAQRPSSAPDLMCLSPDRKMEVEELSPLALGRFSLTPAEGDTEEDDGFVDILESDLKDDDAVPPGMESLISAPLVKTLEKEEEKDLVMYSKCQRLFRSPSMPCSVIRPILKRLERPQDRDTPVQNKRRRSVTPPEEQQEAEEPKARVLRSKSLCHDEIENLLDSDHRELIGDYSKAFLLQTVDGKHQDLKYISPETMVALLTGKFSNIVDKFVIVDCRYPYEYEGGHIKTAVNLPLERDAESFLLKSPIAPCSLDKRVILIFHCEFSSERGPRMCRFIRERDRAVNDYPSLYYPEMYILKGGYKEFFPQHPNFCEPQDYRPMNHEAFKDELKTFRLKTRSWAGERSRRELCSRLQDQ
method_notes: Cdc25B phosphatase inhibition (50 μM screen, 3 pt. and 8 pt. IC-50)
Format: biochemical
measurement_context: Cdc25B; 3 pt. IC-50 using 1, 7 and 50 μM; read-out: IC50 (3 pt)
Quick list: IC50 per entry.
Answer format: numeric, µM implied, no suffix.

Example entries begin here.
1) O=C1C=C(O)C(=O)C(c2c[nH]c3ccc(F)cc23)=C1O [4B]	11.7
2) Cc1[nH]c2ccc(Cl)cc2c1C1=C(O)C(=O)C=C(O)C1=O [7E]	52.2
3) CC(C)(C)c1[nH]c2ccccc2c1C1=C(O)C(=O)C(c2c[nH]c3ccccc23)=C(O)C1=O [8F]	11.2
4) CC(C)(C)c1[nH]c2ccccc2c1C1=C(O)C(=O)C(c2c(-c3ccccc3)[nH]c3ccccc23)=C(O)C1=O [9D]	6.1

// moving on: another record for IC50
Provide IC50 value for the following molecule: O=C1C=C(O)C(=O)C(c2c[nH]c3ccccc23)=C1O [2A]
14.2

====

assay_system: Cdc25B (Homo sapiens, UniProt P30305)
method_notes: Cdc25B phosphatase inhibition (50 μM screen, 3 pt. and 8 pt. IC-50)
Assay type: biochemical
measurement_context: Cdc25B; 3 pt. IC-50 using 1, 7 and 50 μM; read-out: IC50 (3 pt)
reported_metric: IC50 (µM)
Answer format: numeric, µM implied, no suffix.

1) Cc1[nH]c2ccc(Cl)cc2c1C1=C(O)C(=O)C(c2c(C(C)(C)C)[nH]c3ccccc23)=C(O)C1=O [11A]	8.4
2) O=C1C=C(O)C(=O)C(c2c[nH]c3cccc(Br)c23)=C1O	3.1

Report IC50 on Cdc25B (Homo sapiens, UniProt P30305) for this entry: `Cc1ccc2c(C3=C(O)C(=O)C=C(O)C3=O)c(C)[nH]c2c1`
207

Report IC50 on Cdc25B (Homo sapiens, UniProt P30305) for this entry: `Cc1ccc2c(C3=C(O)C(=O)C=C(O)C3=O)c[nH]c2c1`
32.3

Report IC50 on Cdc25B (Homo sapiens, UniProt P30305) for this entry: `O=C1C=C(O)C(=O)C(c2c(-c3ccccc3)[nH]c3ccccc23)=C1O`
22.2

Report IC50 on Cdc25B (Homo sapiens, UniProt P30305) for this entry: `Cc1cccc2c(C3=C(O)C(=O)c4cccc(O)c4C3=O)c[nH]c12`
69.3

Report IC50 on Cdc25B (Homo sapiens, UniProt P30305) for this entry: `O=C1C=C(O)C(=O)C(c2c[nH]c3c(Cl)cccc23)=C1O`
38

====

Quick list: inhibition at 50 µM per entry.
assay_system: UniProt P30304
Sequence (P30304 whole entry, species assumed): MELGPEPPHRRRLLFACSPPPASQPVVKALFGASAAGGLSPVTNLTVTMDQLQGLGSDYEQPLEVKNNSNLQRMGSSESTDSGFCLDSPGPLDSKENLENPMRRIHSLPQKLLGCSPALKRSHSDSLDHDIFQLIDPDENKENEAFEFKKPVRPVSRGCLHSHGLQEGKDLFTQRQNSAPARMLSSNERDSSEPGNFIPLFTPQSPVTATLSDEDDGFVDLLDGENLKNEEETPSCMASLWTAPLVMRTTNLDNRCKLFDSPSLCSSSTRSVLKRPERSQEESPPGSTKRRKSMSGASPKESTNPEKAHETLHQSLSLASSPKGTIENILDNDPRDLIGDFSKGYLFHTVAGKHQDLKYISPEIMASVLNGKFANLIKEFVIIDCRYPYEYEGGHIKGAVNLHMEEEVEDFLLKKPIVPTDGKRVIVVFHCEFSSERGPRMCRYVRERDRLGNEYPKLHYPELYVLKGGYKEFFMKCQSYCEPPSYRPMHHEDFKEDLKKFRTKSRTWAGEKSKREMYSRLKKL
method_notes: Cdc25A phosphatase inhibition screen at 50 μM
Type: biochemical
measurement_context: read-out: Percent Inhibition at 50 uM compound, Cdc25 A
Answer format: numeric, % implied, no suffix.

1) COc1cccc2[nH]cc(C3=C(O)C(=O)C=C(O)C3=O)c12	77

Report inhibition at 50 µM on UniProt P30304 for this entry: `O=C1C=C(O)C(=O)C(c2c[nH]c3c(Br)cccc23)=C1O`
93

Report inhibition at 50 µM on UniProt P30304 for this entry: `O=C1C=C(O)C(=O)C(c2c[nH]c3c(-c4ccccc4)cccc23)=C1O`
98

Report inhibition at 50 µM on UniProt P30304 for this entry: `CC(C)(C)c1[nH]c2ccccc2c1C1=C(O)C(=O)C=C(O)C1=O`
31

Report inhibition at 50 µM on UniProt P30304 for this entry: `O=C1C=C(O)C(=O)C(c2c[nH]c3cccc(Cl)c23)=C1O`
67

Report inhibition at 50 µM on UniProt P30304 for this entry: `CC(C)=CCc1cccc2c(C3=C(O)C(=O)C=C(O)C3=O)c[nH]c12`
100

Report inhibition at 50 µM on UniProt P30304 for this entry: `CC1(c2[nH]c3ccccc3c2C2=C(O)C(=O)C=C(O)C2=O)CC1`
49

Report inhibition at 50 µM on UniProt P30304 for this entry: `Cc1[nH]c2c(C)cccc2c1C1=C(O)C(=O)C=C(O)C1=O`
20

Report inhibition at 50 µM on UniProt P30304 for this entry: `O=C1C=C(O)C(=O)C(c2c[nH]c3ccccc23)=C1O`
55

Report inhibition at 50 µM on UniProt P30304 for this entry: `CC1(c2[nH]c3ccccc3c2C2=C(O)C(=O)C=C(O)C2=O)CCCCC1`
69

Report inhibition at 50 µM on UniProt P30304 for this entry: `COc1cc2[nH]cc(C3=C(O)C(=O)C=C(O)C3=O)c2cc1OC`
39

Report inhibition at 50 µM on UniProt P30304 for this entry: `O=C1C=C(O)C(=O)C(c2c[nH]c3c(Cl)cccc23)=C1O`
92

Report inhibition at 50 µM on UniProt P30304 for this entry: `COc1ccc2[nH]cc(C3=C(O)C(=O)C=C(O)C3=O)c2c1`
15

Report inhibition at 50 µM on UniProt P30304 for this entry: `O=C1C=C(O)C(=O)C(c2c[nH]c3ccc(F)cc23)=C1O`
64

Report inhibition at 50 µM on UniProt P30304 for this entry: `Cc1ccc2c(C3=C(O)C(=O)C=C(O)C3=O)c[nH]c2c1`
80

Report inhibition at 50 µM on UniProt P30304 for this entry: `CC(C)=CCC/C(C)=C/Cc1cccc2c(C3=C(O)C(=O)C=C(O)C3=O)c[nH]c12`
99
